Entries annotated with measured IC50
Biological target: human sodium channels Nav 1.8 (Homo sapiens)
Sequence (Q9Y5Y9 whole entry): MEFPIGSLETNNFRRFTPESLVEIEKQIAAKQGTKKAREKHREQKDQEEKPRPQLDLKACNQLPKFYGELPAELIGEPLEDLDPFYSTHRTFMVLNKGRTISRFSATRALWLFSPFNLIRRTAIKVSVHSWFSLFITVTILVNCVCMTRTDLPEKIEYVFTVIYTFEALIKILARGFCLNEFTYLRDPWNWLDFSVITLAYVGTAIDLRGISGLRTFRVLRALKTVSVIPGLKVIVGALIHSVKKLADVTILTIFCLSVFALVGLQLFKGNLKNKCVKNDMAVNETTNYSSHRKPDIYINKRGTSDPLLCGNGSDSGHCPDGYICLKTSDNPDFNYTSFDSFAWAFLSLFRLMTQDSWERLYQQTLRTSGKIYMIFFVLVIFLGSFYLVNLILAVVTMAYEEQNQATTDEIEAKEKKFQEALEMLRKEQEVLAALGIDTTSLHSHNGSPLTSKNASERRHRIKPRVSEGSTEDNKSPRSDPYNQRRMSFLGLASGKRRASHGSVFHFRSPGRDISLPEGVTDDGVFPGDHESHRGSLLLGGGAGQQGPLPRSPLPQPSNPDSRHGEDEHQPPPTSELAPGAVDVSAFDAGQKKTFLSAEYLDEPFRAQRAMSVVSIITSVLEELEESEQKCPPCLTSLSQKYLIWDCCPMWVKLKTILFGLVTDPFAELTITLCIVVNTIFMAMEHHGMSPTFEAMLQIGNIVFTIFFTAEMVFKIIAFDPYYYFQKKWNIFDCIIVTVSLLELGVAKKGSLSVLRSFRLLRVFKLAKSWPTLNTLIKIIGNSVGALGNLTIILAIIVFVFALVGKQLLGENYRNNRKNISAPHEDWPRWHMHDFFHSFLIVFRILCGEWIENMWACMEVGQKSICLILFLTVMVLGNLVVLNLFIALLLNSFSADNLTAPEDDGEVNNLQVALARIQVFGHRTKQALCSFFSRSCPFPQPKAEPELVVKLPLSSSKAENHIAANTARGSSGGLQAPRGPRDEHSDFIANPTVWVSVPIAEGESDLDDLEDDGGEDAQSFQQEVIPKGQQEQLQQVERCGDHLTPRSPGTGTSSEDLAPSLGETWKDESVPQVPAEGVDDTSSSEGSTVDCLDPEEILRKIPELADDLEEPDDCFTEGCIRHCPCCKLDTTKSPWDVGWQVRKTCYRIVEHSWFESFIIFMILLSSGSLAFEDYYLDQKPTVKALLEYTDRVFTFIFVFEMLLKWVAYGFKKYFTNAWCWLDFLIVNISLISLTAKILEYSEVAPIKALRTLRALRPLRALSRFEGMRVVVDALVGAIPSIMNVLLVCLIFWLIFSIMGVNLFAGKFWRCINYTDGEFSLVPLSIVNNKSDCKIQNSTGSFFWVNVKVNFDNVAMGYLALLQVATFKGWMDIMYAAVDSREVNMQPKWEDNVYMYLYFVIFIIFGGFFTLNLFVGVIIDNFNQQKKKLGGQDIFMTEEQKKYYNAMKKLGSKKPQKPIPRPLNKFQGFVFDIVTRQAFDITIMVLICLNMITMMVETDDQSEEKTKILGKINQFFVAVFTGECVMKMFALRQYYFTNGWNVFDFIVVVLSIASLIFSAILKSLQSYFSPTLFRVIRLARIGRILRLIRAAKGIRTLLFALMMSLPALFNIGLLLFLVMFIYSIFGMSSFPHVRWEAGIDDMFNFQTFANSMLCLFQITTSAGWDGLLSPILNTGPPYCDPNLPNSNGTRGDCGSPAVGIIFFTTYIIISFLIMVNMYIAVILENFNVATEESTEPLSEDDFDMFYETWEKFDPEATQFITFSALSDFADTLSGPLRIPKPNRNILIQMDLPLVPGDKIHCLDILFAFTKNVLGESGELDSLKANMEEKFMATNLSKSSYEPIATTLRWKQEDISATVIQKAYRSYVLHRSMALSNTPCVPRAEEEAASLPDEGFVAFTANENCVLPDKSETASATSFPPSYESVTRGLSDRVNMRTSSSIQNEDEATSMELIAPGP
Assay: Automated whole-cell voltage-clamp (ScreenPatch 384P) sodium current block, Nav 1.8
Conditions: CHO cells stably expressing human Nav 1.8; holding -100 mV, inactivation step -40 mV for 8 seconds, test step 10 mV (TP1A); exposure at least five minutes, room temperature; mean where tested in two or more assays; read-out: Nav1.8 IC50

# molecule, IC50
data = [
    ("CCOc1ccc(-c2cncc(C(=O)NCCc3cc(OC)cnc3F)c2)cn1", "> 1000 nM"),
    ("COc1cnc(F)c(CCNC(=O)c2cncc(-c3ccc(OC(F)F)nc3)n2)c1", "> 1000 nM"),
    ("CCOc1ccc(-c2cncc(C(=O)Nc3cc4c(F)ccc(OC)c4[nH]3)n2)cn1", "< 500 nM"),
    ("CCOc1ccc(-c2cncc(C(=O)NCCc3cc(OC)cnc3F)n2)cc1", "< 500 nM"),
    ("[2H]C([2H])([2H])Oc1cc(OC([2H])([2H])[2H])cc([C@H](O)CNC(=O)c2cncc(-c3ccc(OC(F)F)nc3)n2)c1", "< 500 nM"),
    ("CCOc1ccc(-c2cccc(C(=O)NCCc3cc(OC)cnc3F)n2)cc1", "> 1000 nM"),
    ("CCOc1ccc(-c2cncc(C(=O)NCCc3cccc(C(C)O)c3)n2)cc1 (centres unmarked)", "< 500 nM"),
    ("[2H]C([2H])([2H])Oc1ccc(-c2cncc(C(=O)NCCc3cc(OC)cc(OC)c3)n2)cc1", "< 500 nM"),
]
